Reported koff values are given for each entry in this list.
# Test System: T1, recombinant canine β NGF (canine, UniProt Q29074 110-229 (pig entry))
# T1 construct: also called canine NGF
# T1 chain: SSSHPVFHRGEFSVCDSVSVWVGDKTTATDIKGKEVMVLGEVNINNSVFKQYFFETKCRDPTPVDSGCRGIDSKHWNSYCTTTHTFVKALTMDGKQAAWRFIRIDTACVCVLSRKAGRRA
# Assay Info: SPR (Biacore T100), antibody captured on goat anti-canine IgG, canine NGF injected
Write the number in s⁻¹ without appending the unit.

Below, each entry is followed by its recorded koff result.
# Binder, Outcome Measure, Unit Descriptor, Numeric Value
rows = [
    ("Mu81 Canine IgG1/k Chimera (antibody, V domains shown, also called PR-1290657; lot 1778832) VH: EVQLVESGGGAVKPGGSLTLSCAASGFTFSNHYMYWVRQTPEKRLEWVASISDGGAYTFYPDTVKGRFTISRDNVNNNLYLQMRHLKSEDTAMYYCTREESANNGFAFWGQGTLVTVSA VL: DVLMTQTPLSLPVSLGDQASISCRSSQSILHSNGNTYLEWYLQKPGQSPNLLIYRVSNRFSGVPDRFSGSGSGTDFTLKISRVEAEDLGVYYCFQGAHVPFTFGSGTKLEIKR", "koff", "s⁻¹", 0.00035),
    ("Mu73 Canine IgG1/k Chimera (antibody, V domains shown, also called PR-1290654; lot 1785658) VH: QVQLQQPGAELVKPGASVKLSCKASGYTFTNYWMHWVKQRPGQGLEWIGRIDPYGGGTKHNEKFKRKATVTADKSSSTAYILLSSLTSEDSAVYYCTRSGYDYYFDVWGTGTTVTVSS VL: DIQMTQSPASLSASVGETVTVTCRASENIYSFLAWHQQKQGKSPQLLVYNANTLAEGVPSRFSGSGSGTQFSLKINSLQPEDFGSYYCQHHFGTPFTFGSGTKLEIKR", "koff", "s⁻¹", "9e-05"),
    ("Mu77 Canine IgG1/k Chimera (antibody, V domains shown, also called PR-1290656; lot 1785699) VH: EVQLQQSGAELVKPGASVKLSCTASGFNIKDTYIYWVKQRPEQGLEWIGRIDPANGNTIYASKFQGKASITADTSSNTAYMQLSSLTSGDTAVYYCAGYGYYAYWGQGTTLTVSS VL: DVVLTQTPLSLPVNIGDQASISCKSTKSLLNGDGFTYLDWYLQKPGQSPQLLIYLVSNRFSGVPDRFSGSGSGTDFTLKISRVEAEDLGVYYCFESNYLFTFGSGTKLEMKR", "koff", "s⁻¹", 0.00019),
]

Given the binder Mu82 Canine IgG1/k Chimera (antibody, V domains shown, The exact junction was not checked; also called PR-1290658; lot 1785732) VH: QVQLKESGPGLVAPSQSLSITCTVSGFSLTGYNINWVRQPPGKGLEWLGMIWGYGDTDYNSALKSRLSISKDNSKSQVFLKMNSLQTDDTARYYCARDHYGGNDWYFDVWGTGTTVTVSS VL: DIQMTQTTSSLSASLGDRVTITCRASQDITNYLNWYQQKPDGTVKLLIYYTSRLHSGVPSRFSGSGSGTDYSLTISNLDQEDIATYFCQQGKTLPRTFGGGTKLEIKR , what is its reported koff?
1.4e-05
